target: PfRH5 from Plasmodium falciparum strain RF7 (Plasmodium falciparum); assay: cell-based or functional assay
quantity.kind: Max growth inhibition (%)
A complete answer gives the number and then names the unit.

In the examples that follow, each entry is paired with its recorded Max growth inhibition (%).
Inquiry: Quick one: Max growth inhibition (%) for H1H29127P (antibody, V domains shown) VH: QVQLVESGGGVVQPGRSLRLSCAASGFTFSSYGMHWVRQAPGKGLEWVAAIWYDGSNKYYADSVKGRFTISRDNSKNTLYLQMNSLRAEDTAVYFCARGEHYYGSGPFDPWGQGTLVTVSS VL: DIQMTQSPSSLSASVGDRVTITCRASQSISNYLNWYQQKPGKAPKLLIFAASSLQSGVPSRFSGSGSGTDFTLTISSLQPEDFATYYCQQSYSSPLTFGGGTKVEIKR ?
Reply text: 25.7%

Inquiry: Quick one: Max growth inhibition (%) for H1H29104P (antibody, V domains shown) VH: EVQLVESGGGLVQPGRSLRLSCAASGFRFDDYAMHWVRQAPGKGLEWVSGINWNSGGKGYADSVQGRFTISRDNAKNSLYLQMNSLRTEDTALYYCAKDRGIAARLLSRDAFDMWGQGTMVTVSS VL: DIQLTQSPSFLSASVGDRVTITCWASQDVSSYLAWYQQKPGKSPKLLIFAASTLQGGIPSRFSGSGSGTEFTLTISSLRPEDFATYYCQHLNTYPYTFGQGTKLEIKR ?
Reply text: 23.6%

Let's switch to this binder now.
Inquiry: Quick one: Max growth inhibition (%) for H1H29089P (antibody, V domains shown) VH: EVQLVQSGAEVKKPGESLKISCKGSGYSFTSYWIVWVRQMPGKGLEWMGIIYPGDSDTRYSPSFQGQVTISADKSISTAYLQWSSLKASDTAMYYCARQDITGTTGFDYWGQGTLVTVSS VL: DIQMTQSPSSLSASVGDRVTITCRASQSIRNYLNWYQQKPGKAPKLLIYAASSLQSGVPSRFSGSGSGTDFTLTISSLQPEDFATYFCQQSYSTPFTFGPGTKVDIKR ?
Reply text: 28.9%
